# Test system: RPMI-8226 leukemia
# assay-procedure: NCI tumour cell line growth inhibition, 48 h
Reported TGI by item:

Here's what some known entries look like.
compound=Cc1ccc(/C=N/Nc2nc3ccccc3s2)s1 endpoint_label=TGI assay_result="> 100 µM"
compound="CCOC(=O)C1(C#N)C(c2ccccc2)CC(O)(c2ccc([N+](=O)[O-])cc2)C(C(=O)c2ccc([N+](=O)[O-])cc2)C1c1ccccc1 (stereo not drawn)" endpoint_label=TGI assay_result="> 100 µM"

Moving on to the next compound.
Prompt line: Which TGI is reported for this compound? O=C(/C=C/c1ccc(O)c(O)c1)OC1C[C@@](O)(C(=O)O)C[C@@H](O)[C@H]1OC(=O)/C=C/c1ccc(O)c(O)c1 (stereo partly drawn)
Response line: > 100 µM

---

# Tested on: RPMI-8226 leukemia
# assay-procedure: NCI tumour cell line growth inhibition, 48 h
endpoint-label: TGI

Here's what some known entries look like.
chemical_string=O=C(CSc1nc2ccccc2nc1-c1ccccc1)Nc1ccc(Cl)cc1 assay_result="> 100 µM"
chemical_string=NC(=O)c1ccc(NS(=O)(=O)c2ccc(N)cc2)nc1 assay_result="> 100 µM"
chemical_string=O=Nc1ccc(O)c2ccccc12 assay_result="7.58 µM"
chemical_string=C[C@H]1C(=O)O[C@@H]1[C@H]1COC(C)(C)O1 assay_result="> 100 µM"
chemical_string=C=CCCOC(=O)CO[N+](=O)[O-] assay_result="> 100 µM"

Prompt line: Which TGI is reported for this compound? `CCOC(=O)/C(C=Nc1c(C)n(C)n(-c2ccccc2)c1=O)=C(/O)c1ccccc1`
Response line: > 100 µM

---

# System: RXF 393 renal
# assay-procedure: NCI tumour cell line growth inhibition, 48 h
endpoint-label: TGI

molecule=CC1=[N+]([O-])C(C)(C)N(N=O)C1(C)C endpoint_label=TGI assay_result="> 10 µM"

Prompt line: Which TGI is reported for this molecule? `Cc1cccc(-c2nn3c(c2-c2ccnc4ccc(C(N)=O)cc24)CCC3)n1`
Response line: > 100 µM

Prompt line: Please do the same for O=C(/C=C/c1ccc(O)c(O)c1)OC1C[C@@](O)(C(=O)O)C[C@@H](O)[C@H]1OC(=O)/C=C/c1ccc(O)c(O)c1 (stereo not given in full) as well.
Response line: > 100 µM

---

# Tested on: M19-MEL melanoma
# assay-procedure: NCI tumour cell line growth inhibition, 48 h
endpoint-label: TGI

Here's what some known entries look like.
compound="O=C(O)C1=C(C(=O)Nc2ccccc2)C2C=CC1C2 (configuration not stated)" target_entity="M19-MEL melanoma" endpoint_label=TGI assay_result="> 100 µM"
compound="CC(N)C(=O)OCN1C(=O)C2C3C=CC(C2C1=O)C1C2C(=O)N(COC(=O)C(C)N)C(=O)C2C31 (configuration not stated)" target_entity="M19-MEL melanoma" endpoint_label=TGI assay_result="40 µM"
compound=CCSC(SCC)c1cc2c(cc1Br)OCO2 target_entity="M19-MEL melanoma" endpoint_label=TGI assay_result="> 100 µM"
compound=C=CCCCn1ccc2ccccc21 target_entity="M19-MEL melanoma" endpoint_label=TGI assay_result="> 100 µM"
compound="C1CCC(OCc2nnn3c2CCC3)OC1 (configuration not stated)" target_entity="M19-MEL melanoma" endpoint_label=TGI assay_result="> 100 µM"
compound=C#Cc1c(C)c(/C=C/C(C)=C/C=C/C(C)=C/C(=O)OC)n(C)c1C target_entity="M19-MEL melanoma" endpoint_label=TGI assay_result="> 100 µM"

Moving on to the next compound.
Prompt line: Which TGI is reported for this compound? CC(C)(Br)C(Br)CCC(=CCBr)CBr (mixture of isomers)
Response line: 4.2 µM

---

# Test system: HCT-15 colon
# assay-procedure: NCI tumour cell line growth inhibition, 48 h
endpoint-label: TGI (µM)
Enter your answer as a number in µM; do not include the unit.

chemical_string=CC(C)/C(Cl)=N/OC(=O)Nc1cccc(C(F)(F)F)c1 assay_result=3.39

Prompt line: Which TGI is reported for this molecule? `O=C1C=CC(=O)c2c1cc([N+](=O)[O-])c1ccoc21`
Response line: 58.5

---

# Tested on: SK-OV-3 ovarian
# assay-procedure: NCI tumour cell line growth inhibition, 48 h
endpoint-label: TGI

compound="CNC1C(O)C(OC2C(N)CC(N)C(OC3OC(CN)=CCC3N)C2O)OCC1(C)O (stereo not drawn)" assay_result="> 100 µM"
compound="CCN1C(=S)n2cccc2C1CC(=O)c1ccc(Cl)cc1 (stereo not drawn)" assay_result="> 100 µM"

Prompt line: Which TGI is reported for this compound? `COc1cc(-c2nc(NC(C)=O)sc2-c2ccnc(NCCNS(=O)(=O)c3ccccc3)n2)ccc1Cl`
Response line: > 100 µM

Prompt line: Please do the same for `c1ccc(N=c2snc3scc(-c4ccccc4)n23)cc1` as well.
Response line: > 100 µM

---

# Test system: HOP-92 NSCLC
# assay-procedure: NCI tumour cell line growth inhibition, 48 h; in the data active = GI50 below about 0.43 µM; inactive = the rest
One label from this list, please: TRUE = active, FALSE = inactive

Worked examples, 4 molecules total:
molecule=O=C(CSc1nc2ccccc2nc1-c1ccccc1)Nc1ccc(Cl)cc1 assigned_class=FALSE
molecule="CCCCCCCCCCCCNC(=O)[C@H]1CSC(c2cc3ccccc3s2)N1 (stereo not given in full)" assigned_class=FALSE
molecule="CCN(CC)CCCC(C)Nc1cc(-c2ccc(C(F)(F)F)cc2)c(C#N)c2nc3ccccc3n12 (stereo not given)" assigned_class=FALSE
molecule="Cc1ccc2c(c1)C(C)Cc1c(ncnc1-n1cnc3cc(C)ccc31)N2C (stereo not given)" assigned_class=TRUE

Prompt line: Hi, sorry to bother you, what did the test record for C[C@@H](N)C1CCC(C(=O)Nc2ccncc2)CC1 (stereo not given in full) ?
Response line: FALSE

---

# Tested on: OVCAR-5 ovarian
# assay-procedure: NCI tumour cell line growth inhibition, 48 h
Reported TGI by item:

Here's what some known entries look like.
molecule=COc1c(C)c2c(c3c1c(=O)c1ccccc1n3C)C=CC(C)(C)O2 assay_result="87.6 µM"
molecule=COc1ccc2c(c1)CCN=C2Cc1ccccc1CCCl assay_result="> 100 µM"
molecule=C[C@H]1C(=O)O[C@@H]1[C@H]1COC(C)(C)O1 assay_result="> 100 µM"
molecule=C=CCCCn1ccc2ccccc21 assay_result="> 100 µM"

Prompt line: Which TGI is reported for this molecule? `Cc1ccc2nc(N/N=C/c3ccc(C)s3)cc(C)c2c1`
Response line: 22 µM

Prompt line: Please do the same for `Cc1ccc(/C=N/Nc2nc3ccccc3s2)s1` as well.
Response line: > 100 µM

Prompt line: Please do the same for `CCN(CC)C(=S)SNc1ccc(S(N)(=O)=O)cc1` as well.
Response line: > 72.3 µM

Prompt line: Please do the same for CNC1C(O)C(OC2C(N)CC(N)C(OC3OC(CN)=CCC3N)C2O)OCC1(C)O (configuration not stated) as well.
Response line: > 100 µM

Prompt line: Please do the same for `COc1ccc2oc(=Nc3ccccc3)c(C(N)=O)cc2c1` as well.
Response line: > 100 µM

Prompt line: Please do the same for C=C[C@]1(O)CCC[C@]2(C)C(=O)CCC12C (some centres not stated) as well.
Response line: > 100 µM

Prompt line: Please do the same for `Cc1ccc(-c2cc(-c3ccc(Cl)cc3)nc(/N=C3\C(=O)N(CN4CCOCC4)c4ccccc43)n2)cc1` as well.
Response line: 67.9 µM

Prompt line: Please do the same for `C/C(=C/c1ccccc1)CN(C(=O)/C=C\Sc1ccccc1)C(C)(C)C` as well.
Response line: > 100 µM

Prompt line: Please do the same for `COC(=O)NC1(NC(=O)OC)NC(=O)c2cc(OC)c(OC)cc2N1` as well.
Response line: > 100 µM

Prompt line: Please do the same for COC(=O)C(Cc1cnc[nH]1)NC(=O)CNC(=O)CCCn1c(=O)c2c3ccccc3n(C)c2n2nnc(-c3ccccc3)c12 (configuration not stated) as well.
Response line: > 100 µM

Prompt line: Please do the same for CSc1nc(NC2OCC(OC(C)=O)C(OC(C)=O)C2OC(C)=O)c(N=C(C)C(C)=O)c(=O)n1C (configuration not stated) as well.
Response line: > 100 µM

Prompt line: Please do the same for `Nc1nc(Cl)cc(NCCCCCNc2cc(Cl)nc(N)n2)n1` as well.
Response line: > 100 µM

Prompt line: Please do the same for `Cc1nnc2sc(Cl)nn12` as well.
Response line: 44.5 µM

Prompt line: Please do the same for `COc1ccc(/C=C/C(=O)C(C)(C)CN2CCCCC2)cc1` as well.
Response line: > 100 µM

Prompt line: Please do the same for `Cc1cccc(O)c1-c1nnc(CCCCCCCCc2nnc(-c3c(C)cccc3O)n2N)n1N` as well.
Response line: > 100 µM

Prompt line: Please do the same for CN(C)CC1CCCC(CN2CCCCC2)C1=O (configuration not stated) as well.
Response line: 46.5 µM

Prompt line: Please do the same for COc1ccc(N=Nc2c(C)c(C#N)c(=S)n(C3OC(COC(C)=O)C(OC(C)=O)C(OC(C)=O)C3OC(C)=O)c2C)cc1 (configuration not stated) as well.
Response line: > 100 µM

Prompt line: Please do the same for `CCOC(=O)[C@@H]1OC(c2ccccc2)O[C@H]1C(=O)OCC` as well.
Response line: > 100 µM
